organism: Homo sapiens; assay: Selectivity index, ratio of Ki for human M1 muscarinic receptor to Ki for human M5 muscarinic receptor
Consider the following compounds; for each one, report its Ratio Ki.
Respond numerically, and do not add a unit to the figure.

Give its Ratio Ki value. Item: "CCN1CCC(c2ccccc2)=C(C(=O)OCCc2ccsc2)C1"
0.7

Field request: Ratio Ki | item: "CCN1CCC(c2ccccc2)=C(C(=O)OCCc2ccc3c(c2)CCO3)C1"
6

For the compound "COc1ccc(CCCCOC(=O)C2=C(c3ccccc3)CCN(C)C2)cc1" , what Ratio Ki is on record?
4.7

Given "CCN1CCC(c2ccccc2)=C(C(=O)OCCc2ccc3c(c2)OCO3)C1" , state its recorded Ratio Ki.
0.7

What value of Ratio Ki has been recorded for this entry: "COc1ccc(CCOC(=O)C2=C(c3ccccc3)CCN(C)C2)cc1C"
3.6

Fill blank: measured Ratio Ki of the compound "CN1CCC(c2ccccc2)=C(C(=O)OCCc2ccc3c(c2)CCO3)C1" is ____.
4.8
